Values from ChEMBL document CHEMBL1134474

The following compounds are shown together with reported inhibition values.
Biological target: Acetylcholinesterase (Homo sapiens) (UniProt P22303)
Sequence (P22303 whole entry): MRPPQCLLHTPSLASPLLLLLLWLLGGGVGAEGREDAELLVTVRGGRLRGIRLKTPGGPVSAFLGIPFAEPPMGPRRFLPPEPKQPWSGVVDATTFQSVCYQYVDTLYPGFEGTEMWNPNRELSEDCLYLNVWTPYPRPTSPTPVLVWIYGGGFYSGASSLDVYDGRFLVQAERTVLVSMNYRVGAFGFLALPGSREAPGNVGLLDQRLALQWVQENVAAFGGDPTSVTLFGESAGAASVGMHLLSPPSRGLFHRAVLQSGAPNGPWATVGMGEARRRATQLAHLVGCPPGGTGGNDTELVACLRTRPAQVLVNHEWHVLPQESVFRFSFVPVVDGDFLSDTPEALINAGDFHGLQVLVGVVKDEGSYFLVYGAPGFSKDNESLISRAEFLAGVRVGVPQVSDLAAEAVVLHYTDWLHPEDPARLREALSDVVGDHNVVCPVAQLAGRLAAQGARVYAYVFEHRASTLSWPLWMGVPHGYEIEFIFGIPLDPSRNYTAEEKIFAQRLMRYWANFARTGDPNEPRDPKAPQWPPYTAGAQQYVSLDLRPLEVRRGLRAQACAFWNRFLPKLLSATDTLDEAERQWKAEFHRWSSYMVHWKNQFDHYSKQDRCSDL
Assay: Percent inhibition of acetylcholinesterase using ATCh1 as a substrate
Design: concentration or dose not given beside the values
Details: concentration not given here
Measured Endpoint: inhibition (%)

>>> df
                                item_smiles  measured_endpoint  recorded_number
0  CC[C@@]1(O)C(=O)OCc2c1cc1n(c2=O)Cc2cc3ccccc3nc2-1         inhibition               23
1  CCc1c2c(nc3ccc4c(c13)NCCO4)-c1cc3c(c(=O)n1C2)COC(=O)[C@]3(O)CC         inhibition               12
2  CC[C@@]1(O)C(=O)OCc2c1cc1n(c2=O)Cc2cc3c4c(ccc3nc2-1)OCCN4         inhibition               13
3  CC[C@@]1(O)C(=O)OCc2c1cc1n(c2=O)Cc2cc3c4c(ccc3nc2-1)OCCN4CC#N         inhibition               20
4  CCc1c2c(nc3ccc4c(c13)N(C)CCO4)-c1cc3c(c(=O)n1C2)COC(=O)[C@]3(O)CC         inhibition               19
5  CCN1CCOc2ccc3nc4c(cc3c21)Cn1c-4cc2c(c1=O)COC(=O)[C@]2(O)CC         inhibition                9

====

The following compounds are shown together with reported pIC50 values.
System: WiDr
Assay: In Vitro cytotoxicity against human colon cancer cell line (WiDr)
Type: functional, cell-based
pIC50: −log10 of the molar value.
Measured Endpoint: pIC50

                                   compound  measured_endpoint  recorded_number
0  CC[C@@]1(O)C(=O)OCc2c1cc1n(c2=O)Cc2cc3c4c(cc(CN(C)C)c3nc2-1)OCCN4              pIC50             5.50
1  CC[C@@]1(O)C(=O)OCc2c1cc1n(c2=O)Cc2cc3c4c(ccc3nc2-1)OCCN4              pIC50             7.64
2  CC[C@@]1(O)C(=O)OCc2c1cc1n(c2=O)Cc2cc3c4c(ccc3nc2-1)OCCN4CCN              pIC50             6.38
3  CC[C@@]1(O)C(=O)OCc2c1cc1n(c2=O)Cc2cc3c4c(ccc3nc2-1)OCCN4C              pIC50             7.64
4  CC[C@@]1(O)C(=O)OCc2c1cc1n(c2=O)Cc2cc3ccccc3nc2-1              pIC50             7.77
5  CC[C@@]1(O)C(=O)OCc2c1cc1n(c2=O)Cc2cc3c(CN(C)C)c(O)ccc3nc2-1              pIC50             7.25
6  CC[C@@]1(O)C(=O)OCc2c1cc1n(c2=O)Cc2cc3c4c(ccc3nc2-1)OCCN4CC#N              pIC50             7.52
7  CCc1c2c(nc3ccc(O)cc13)-c1cc3c(c(=O)n1C2)COC(=O)[C@]3(O)CC [7-ETHYL-10-HYDROXYCAMPTOTHECIN]              pIC50             7.85
